Entry source: patent US20240409585A1

- Measurement target: PE-labeled human PD-L1-Ig binding to Jurkat cell line over-expressing human PD-1 (Jurkat-PD-1) (Homo sapiens)
- Construct: expressed in transfected cells; host or cells: Jurkat
- Assay method text: Jurkat-PD-1 Cell Binding High-Content Screening Assay (CBA): Method 1
- Condition notes: Jurkat-hPD-1 cells, PE-labeled PD-L1-Ig 20 nM final; read-out: Jurkat HPDL1 PD1 IC50 (uM) (Method 1)
Numbered stars: 1 amine (or outer) side, 2 acyl side, 3 side chain; on linkers, the order of the positions; unused ones are H or OH. Bridge positions count the residues as written; N and C are the ends. Square brackets hold non-standard residues; d marks the D form. Peptide text beside a SMILES is read from it. X33 = O=C([C@H](Cc1ccc(-c2cccc(Cl)c2)cc1)N[*:1])[*:2]; Bip = N[C@@H](Cc1ccc(-c2ccccc2)cc1)C(=O)O; NMeA = CN[C@@H](C)C(=O)O
Measured parameter: IC50 (µM)
Numbers only, in µM.

CC(C)C[C@@H]1NC(=O)[C@H](Cc2c[nH]c3ccccc23)NC(=O)[C@H](CC(=O)O)NC(=O)[C@H](Cc2ccc(O)cc2)NC(=O)[C@H](Cc2ccccc2)NC(=O)CSC[C@@H](C(=O)N[C@@H](C)C(N)=O)NC(=O)[C@H](CO)NC(=O)[C@H](C(C)C)NC(=O)[C@H](CC(C)C)NC(=O)[C@H](CC(N)=O)NC(=O)[C@@H](C)NC(=O)[C@H](C)N(C)C(=O)[C@H](CCC(=O)O)NC(=O)[C@H](Cc2ccc(-c3ccccc3)cc2)NC1=O [Compound 1768] ({CH2CO}-FYDWL[Bip]E[NMeA][dA]NLVSCA-NH2; thioether N-14)
0.04

Kindly consider the entry below.
Task: May I ask what IC50 has been recorded for CC(C)C[C@@H]1NC(=O)[C@H](Cc2c[nH]c3ccccc23)NC(=O)[C@H](CC(=O)O)NC(=O)[C@H](Cc2ccc(O)cc2)NC(=O)[C@H](Cc2ccccc2)NC(=O)CSC[C@@H](C(=O)N[C@@H](C)C(N)=O)NC(=O)[C@H](CO)NC(=O)[C@H](C(C)C)NC(=O)[C@H](CC(C)C)NC(=O)[C@H](CC(N)=O)NC(=O)[C@@H](C)NC(=O)[C@H](C)N(C)C(=O)[C@H](C(C)C)NC(=O)[C@H](Cc2ccc(-c3cccc(Cl)c3)cc2)NC1=O [Compound 1774] ({CH2CO}-FYDWL[X33]V[NMeA][dA]NLVSCA-NH2; thioether N-14) ?
Output: 0.05

----------
- Measurement target: PE-labeled human PD-L1-Ig binding to Jurkat cell line over-expressing human PD-1 (Jurkat-PD-1) (Homo sapiens, UniProt Q15116)
- Construct: expressed in transfected cells; host or cells: Jurkat
- Sequence (Q15116 25-288): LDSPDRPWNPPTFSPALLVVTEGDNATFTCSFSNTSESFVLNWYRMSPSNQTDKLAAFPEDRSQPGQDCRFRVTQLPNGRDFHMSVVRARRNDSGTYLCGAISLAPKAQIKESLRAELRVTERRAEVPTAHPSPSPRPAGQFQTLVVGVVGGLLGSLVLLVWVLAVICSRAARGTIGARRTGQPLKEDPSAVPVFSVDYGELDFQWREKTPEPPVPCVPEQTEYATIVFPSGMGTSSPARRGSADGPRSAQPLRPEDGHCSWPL
- Assay method text: Jurkat-PD-1 Cell Binding High-Content Screening Assay (CBA): Method 1
- Condition notes: Jurkat-hPD-1 cells, PE-labeled PD-L1-Ig 20 nM final; read-out: Jurkat HPDL1 PD1 IC50 (uM) (Method 1)
Bridge positions count the residues as written; N and C are the ends. Square brackets hold non-standard residues; d marks the D form. Peptide text beside a SMILES is read from it. Bip = N[C@@H](Cc1ccc(-c2ccccc2)cc1)C(=O)O; NMeA = CN[C@@H](C)C(=O)O
Measured parameter: IC50 (µM)
Answers are plain numbers, in µM.

CC(C)C[C@@H]1NC(=O)[C@H](Cc2c[nH]c3ccccc23)NC(=O)[C@H](CC(=O)O)NC(=O)[C@H](Cc2ccc(O)cc2)NC(=O)[C@H](Cc2ccccc2)NC(=O)CSC[C@@H](C(=O)N[C@@H](C)C(N)=O)NC(=O)[C@H](CO)NC(=O)[C@H](C(C)C)NC(=O)[C@H](CC(C)C)NC(=O)[C@H](CCCCN)NC(=O)[C@@H](C)NC(=O)[C@H](C)N(C)C(=O)[C@H](CCC(=O)O)NC(=O)[C@H](Cc2ccc(-c3ccccc3)cc2)NC1=O [Compound 1767] ({CH2CO}-FYDWL[Bip]E[NMeA][dA]KLVSCA-NH2; thioether N-14)
0.04

Switching to the query record.
Task: Dear colleague, I am looking for the recorded IC50 of the following compound: CC(C)C[C@@H]1NC(=O)[C@H](CCCNC(=N)N)NC(=O)[C@@H](C)NC(=O)[C@H](C)N(C)C(=O)[C@H](CCCNC(=N)N)NC(=O)[C@H](Cc2ccc(-c3ccccc3)cc2)NC(=O)[C@H](C(C)C)NC(=O)[C@H](Cc2c[nH]c3ccccc23)NC(=O)[C@H](CC(=O)O)NC(=O)[C@H](Cc2ccc(O)cc2)NC(=O)[C@H](Cc2ccccc2)NC(=O)CSC[C@@H](C(=O)NCC(N)=O)NC(=O)[C@H](CO)NC(=O)[C@H](C(C)C)NC1=O [Compound 1016] ({CH2CO}-FYDWV[Bip]R[NMeA][dA]RLVSCG-NH2; thioether N-14)
Output: 0.13

----------
- Measurement target: PE-labeled human PD-L1-Ig binding to Jurkat cell line over-expressing human PD-1 (Jurkat-PD-1) (Homo sapiens, UniProt Q15116)
- Construct: expressed in transfected cells; host or cells: Jurkat
- Assay method text: Jurkat-PD-1 Cell Binding High-Content Screening Assay (CBA): Method 1
- Condition notes: Jurkat-hPD-1 cells, PE-labeled PD-L1-Ig 20 nM final; read-out: Jurkat HPDL1 PD1 IC50 (uM) (Method 1)
Bridge positions count the residues as written; N and C are the ends. Square brackets hold non-standard residues; d marks the D form. Peptide text beside a SMILES is read from it. Bip = N[C@@H](Cc1ccc(-c2ccccc2)cc1)C(=O)O; Phe(3-Me) = Cc1cccc(C[C@H](N)C(=O)O)c1; 4Pal = N[C@@H](Cc1ccncc1)C(=O)O; pS = N[C@@H](COP(=O)(O)O)C(=O)O; NMeA = CN[C@@H](C)C(=O)O; Orn = NCCC[C@H](N)C(=O)O; Dab = NCC[C@H](N)C(=O)O
Measured parameter: log10 of IC50 (log10 of the value in µM)
A difference of one corresponds to tenfold IC50; all values are log10 with IC50 in µM.

In the examples that follow, each entry is paired with its recorded log10 of IC50.
CC(C)C[C@@H]1NC(=O)[C@H](Cc2c[nH]c3ccccc23)NC(=O)[C@H](COP(=O)(O)O)NC(=O)[C@H](Cc2ccc(O)cc2)NC(=O)[C@H](Cc2ccccc2)NC(=O)CSC[C@@H](C(=O)N[C@@H](C)C(N)=O)NC(=O)[C@H](CO)NC(=O)[C@H](C(C)C)NC(=O)[C@H](CC(C)C)NC(=O)[C@H](CC(N)=O)NC(=O)[C@@H](C)NC(=O)[C@H](C)N(C)C(=O)[C@H](C(C)C)NC(=O)[C@H](Cc2ccc(-c3ccccc3)cc2)NC1=O [Compound 1821] ({CH2CO}-FY[pS]WL[Bip]V[NMeA][dA]NLVSCA-NH2; thioether N-14)
-0.31
CC(C)C[C@@H]1NC(=O)[C@H](CCCNC(=N)N)NC(=O)[C@@H](CC(C)C)NC(=O)[C@H](C)N(C)C(=O)[C@H](CCC(=O)O)NC(=O)[C@H](Cc2ccc(-c3ccccc3)cc2)NC(=O)[C@H](C(C)C)NC(=O)[C@H](Cc2c[nH]c3ccccc23)NC(=O)[C@H](CC(=O)O)NC(=O)[C@H](Cc2ccc(O)cc2)NC(=O)[C@H](CC(N)=O)NC(=O)CSC[C@@H](C(=O)N[C@@H](C)C(N)=O)NC(=O)[C@H](CCCN)NC(=O)[C@H](C(C)C)NC1=O [Compound 1250] ({CH2CO}-NYDWV[Bip]E[NMeA][dL]RLV[Orn]CA-NH2; thioether N-14)
-1.15

Would you mind listing log10 of IC50 for each of the following compounds?
1. Cc1cccc(C[C@@H]2NC(=O)[C@H](Cc3ccncc3)NC(=O)CSC[C@@H](C(=O)NCC(N)=O)NC(=O)[C@H](CO)NC(=O)[C@H](C(C)C)NC(=O)[C@H](CC(C)C)NC(=O)[C@H](CC(N)=O)NC(=O)[C@@H](CC(C)C)NC(=O)[C@H](C)N(C)C(=O)[C@H](C(C)C)NC(=O)[C@H](Cc3ccc(-c4ccccc4)cc3)NC(=O)[C@H](CC(C)C)NC(=O)[C@H](Cc3c[nH]c4ccccc34)NC(=O)[C@H](CC(=O)O)NC2=O)c1 [Compound 1519] ({CH2CO}-[4Pal][Phe(3-Me)]DWL[Bip]V[NMeA][dL]NLVSCG-NH2; thioether N-14)
2. CC(C)C[C@@H]1NC(=O)[C@H](CCN)NC(=O)[C@@H](CC(C)C)NC(=O)[C@H](C)N(C)C(=O)[C@H](CCC(=O)O)NC(=O)[C@H](Cc2ccc(-c3ccccc3)cc2)NC(=O)[C@H](C(C)C)NC(=O)[C@H](Cc2c[nH]c3ccccc23)NC(=O)[C@H](CC(=O)O)NC(=O)[C@H](Cc2ccc(O)cc2)NC(=O)[C@H](CC(N)=O)NC(=O)CSC[C@@H](C(=O)N[C@@H](C)C(N)=O)NC(=O)[C@H](CO)NC(=O)[C@H](C(C)C)NC1=O [Compound 1248] ({CH2CO}-NYDWV[Bip]E[NMeA][dL][Dab]LVSCA-NH2; thioether N-14)

Output:
1. -1.70
2. -1.15
